Source listed as patent US5922580A.

Listed here: items and their measured Saccharide composition of hydrolysate with α-glucosidase: Glucose.
- measured-on: α-glucosidase specimen derived from rice (Oryza sativa subsp. japonica)
- Construct: purchased Sigma Chemical Company, St. Louis, USA; host or cells: rice
- Sequence (Q653V7 34-885): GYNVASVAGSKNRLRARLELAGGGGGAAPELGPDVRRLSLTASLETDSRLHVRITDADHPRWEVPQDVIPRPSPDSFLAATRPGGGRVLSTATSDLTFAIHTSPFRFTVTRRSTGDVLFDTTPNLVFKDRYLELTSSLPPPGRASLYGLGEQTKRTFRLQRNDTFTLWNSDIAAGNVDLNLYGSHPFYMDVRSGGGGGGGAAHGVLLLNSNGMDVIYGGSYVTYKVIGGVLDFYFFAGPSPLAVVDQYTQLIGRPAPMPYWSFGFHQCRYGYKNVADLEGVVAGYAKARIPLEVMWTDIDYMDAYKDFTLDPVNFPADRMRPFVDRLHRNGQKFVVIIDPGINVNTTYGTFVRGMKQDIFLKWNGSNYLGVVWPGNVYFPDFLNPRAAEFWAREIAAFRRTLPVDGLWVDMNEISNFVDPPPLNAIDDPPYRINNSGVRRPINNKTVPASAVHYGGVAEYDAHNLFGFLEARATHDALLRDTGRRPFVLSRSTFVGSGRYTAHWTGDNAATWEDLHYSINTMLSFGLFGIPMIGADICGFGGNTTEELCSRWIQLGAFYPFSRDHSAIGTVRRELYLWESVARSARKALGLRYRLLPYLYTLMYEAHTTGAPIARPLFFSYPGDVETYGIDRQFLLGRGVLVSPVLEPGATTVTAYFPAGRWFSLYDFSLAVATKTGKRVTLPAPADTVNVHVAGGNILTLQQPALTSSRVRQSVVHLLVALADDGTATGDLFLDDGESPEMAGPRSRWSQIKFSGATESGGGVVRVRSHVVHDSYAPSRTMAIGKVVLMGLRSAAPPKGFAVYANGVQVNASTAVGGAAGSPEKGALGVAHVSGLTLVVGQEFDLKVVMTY
- measurement-protocol: Hydrolysis by α-glucosidase
- Assay type: biochemical
- measurement-context: 50 mM acetate buffer pH 4.0, 37° C., 18 hours
readout: Saccharide composition of hydrolysate with α-glucosidase: Glucose (%)

- chemical-string: "OC[C@H]1O[C@H](O[C@H]2O[C@H](CO)[C@@H](O[C@H]3O[C@H](CO)[C@@H](O)[C@H](O)[C@H]3O)[C@H](O)[C@H]2O)[C@H](O)[C@@H](O)[C@@H]1O"
  numeric-readout: 36.5
- chemical-string: "OC[C@H]1O[C@H](O[C@H]2O[C@H](CO)[C@@H](O[C@H]3O[C@H](CO)[C@@H](O[C@H]4O[C@H](CO)[C@@H](O[C@H]5O[C@H](CO)[C@@H](O)[C@H](O)[C@H]5O)[C@H](O)[C@H]4O)[C@H](O)[C@H]3O)[C@H](O)[C@H]2O)[C@H](O)[C@@H](O)[C@@H]1O"
  numeric-readout: 61.7
- chemical-string: "OC[C@H]1O[C@H](O[C@H]2O[C@H](CO)[C@@H](O[C@H]3O[C@H](CO)[C@@H](O[C@H]4O[C@H](CO)[C@@H](O[C@H]5O[C@H](CO)[C@@H](O[C@H]6O[C@H](CO)[C@@H](O)[C@H](O)[C@H]6O)[C@H](O)[C@H]5O)[C@H](O)[C@H]4O)[C@H](O)[C@H]3O)[C@H](O)[C@H]2O)[C@H](O)[C@@H](O)[C@@H]1O"
  numeric-readout: 69.5
- chemical-string: "OC[C@H]1O[C@H](O[C@H]2O[C@H](CO)[C@@H](O[C@H]3O[C@H](CO)[C@@H](O[C@H]4O[C@H](CO)[C@@H](O)[C@H](O)[C@H]4O)[C@H](O)[C@H]3O)[C@H](O)[C@H]2O)[C@H](O)[C@@H](O)[C@@H]1O"
  numeric-readout: 52.1
- chemical-string: "OC[C@H]1O[C@H](O[C@H]2O[C@H](CO)[C@@H](O[C@H]3O[C@H](CO)[C@@H](O[C@H]4O[C@H](CO)[C@@H](O[C@H]5O[C@H](CO)[C@@H](O[C@H]6O[C@H](CO)[C@@H](O[C@H]7O[C@H](CO)[C@@H](O)[C@H](O)[C@H]7O)[C@H](O)[C@H]6O)[C@H](O)[C@H]5O)[C@H](O)[C@H]4O)[C@H](O)[C@H]3O)[C@H](O)[C@H]2O)[C@H](O)[C@@H](O)[C@@H]1O"
  numeric-readout: 71.4

###

- measured-on: α-amylase specimen derived from pig pancreas (Sus scrofa)
- Construct: purchased Sigma Chemical Company, St. Louis, USA; host or cells: pig pancreas
- Sequence (P00690 16-511): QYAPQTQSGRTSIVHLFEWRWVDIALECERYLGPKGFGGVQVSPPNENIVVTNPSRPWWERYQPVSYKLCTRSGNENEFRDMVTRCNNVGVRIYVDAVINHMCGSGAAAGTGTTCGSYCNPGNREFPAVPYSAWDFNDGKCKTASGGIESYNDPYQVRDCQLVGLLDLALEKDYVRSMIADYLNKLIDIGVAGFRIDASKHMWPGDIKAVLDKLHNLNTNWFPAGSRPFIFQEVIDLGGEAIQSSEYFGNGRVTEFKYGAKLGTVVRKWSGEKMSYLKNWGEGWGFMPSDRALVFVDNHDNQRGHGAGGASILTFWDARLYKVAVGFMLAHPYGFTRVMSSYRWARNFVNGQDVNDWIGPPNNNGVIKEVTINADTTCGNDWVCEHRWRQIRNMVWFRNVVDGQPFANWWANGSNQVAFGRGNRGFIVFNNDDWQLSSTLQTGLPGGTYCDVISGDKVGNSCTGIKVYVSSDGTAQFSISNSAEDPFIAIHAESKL
- measurement-protocol: Hydrolysis by α-amylase
- Format: biochemical
- Parameters: unit not given here
- measurement-context: α-amylase, 10 mg/ml, pH 6.9, 37° C., 18 hours; HPLC
readout: Saccharide composition of hydrolysate: G2 (maltose)

- compound: "OC[C@H]1O[C@H](O[C@H]2O[C@H](CO)[C@@H](O[C@H]3O[C@H](CO)[C@@H](O[C@H]4O[C@H](CO)[C@@H](O[C@H]5O[C@H](CO)[C@@H](O[C@H]6O[C@H](CO)[C@@H](O)[C@H](O)[C@H]6O)[C@H](O)[C@H]5O)[C@H](O)[C@H]4O)[C@H](O)[C@H]3O)[C@H](O)[C@H]2O)[C@H](O)[C@@H](O)[C@@H]1O [P IV, α-maltotetraosyl trehalose]"
  numeric-readout: 7.5
- compound: "OC[C@H]1O[C@H](O[C@H]2O[C@H](CO)[C@@H](O[C@H]3O[C@H](CO)[C@@H](O[C@H]4O[C@H](CO)[C@@H](O[C@H]5O[C@H](CO)[C@@H](O[C@H]6O[C@H](CO)[C@@H](O[C@H]7O[C@H](CO)[C@@H](O)[C@H](O)[C@H]7O)[C@H](O)[C@H]6O)[C@H](O)[C@H]5O)[C@H](O)[C@H]4O)[C@H](O)[C@H]3O)[C@H](O)[C@H]2O)[C@H](O)[C@@H](O)[C@@H]1O [P V, α-maltopentaosyl trehalose]"
  numeric-readout: 8.6
- compound: "OC[C@H]1O[C@H](O[C@H]2O[C@H](CO)[C@@H](O[C@H]3O[C@H](CO)[C@@H](O)[C@H](O)[C@H]3O)[C@H](O)[C@H]2O)[C@H](O)[C@@H](O)[C@@H]1O [P I, α-glucosyl trehalose]"
  numeric-readout: 0.4
- compound: "OC[C@H]1O[C@H](O[C@H]2O[C@H](CO)[C@@H](O[C@H]3O[C@H](CO)[C@@H](O[C@H]4O[C@H](CO)[C@@H](O[C@H]5O[C@H](CO)[C@@H](O)[C@H](O)[C@H]5O)[C@H](O)[C@H]4O)[C@H](O)[C@H]3O)[C@H](O)[C@H]2O)[C@H](O)[C@@H](O)[C@@H]1O [P III, α-maltotriosyl trehalose]"
  numeric-readout: 33.0
- compound: "OC[C@H]1O[C@H](O[C@H]2O[C@H](CO)[C@@H](O[C@H]3O[C@H](CO)[C@@H](O[C@H]4O[C@H](CO)[C@@H](O)[C@H](O)[C@H]4O)[C@H](O)[C@H]3O)[C@H](O)[C@H]2O)[C@H](O)[C@@H](O)[C@@H]1O [P II, α-maltosyl trehalose]"
  numeric-readout: 0.8
